Below is a list of entries, each paired with its recorded residual activity value.
system: Serine/threonine-protein kinase 3 (Homo sapiens) (UniProt Q13188)
Sequence (Q13188 whole entry): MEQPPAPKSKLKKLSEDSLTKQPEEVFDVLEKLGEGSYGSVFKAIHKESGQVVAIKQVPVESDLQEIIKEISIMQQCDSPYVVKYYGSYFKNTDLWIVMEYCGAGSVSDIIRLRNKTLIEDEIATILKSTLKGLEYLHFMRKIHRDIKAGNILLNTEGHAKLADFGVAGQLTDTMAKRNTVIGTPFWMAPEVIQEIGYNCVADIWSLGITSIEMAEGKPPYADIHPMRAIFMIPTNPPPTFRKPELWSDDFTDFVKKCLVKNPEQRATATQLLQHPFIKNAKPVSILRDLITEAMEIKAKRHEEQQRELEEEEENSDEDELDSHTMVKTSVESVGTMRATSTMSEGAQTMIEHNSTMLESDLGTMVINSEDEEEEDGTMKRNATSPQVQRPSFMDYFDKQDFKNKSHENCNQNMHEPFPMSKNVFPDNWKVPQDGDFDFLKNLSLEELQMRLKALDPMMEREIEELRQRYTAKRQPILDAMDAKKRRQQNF
measurementSetup: at 1 µM
Note: unit % is implicit; provide only the numeric part.

Please review the entries below; each comes with its answer.
1) Cc1ccc(S(=O)(=O)/C=C/C#N)cc1 :: 99
2) Nc1ccc2ncnc(NCCc3ccc(Oc4ccccc4)cc3)c2c1 :: 100
3) Oc1ccc(-c2nc(-c3ccc(F)cc3)c(-c3ccncc3)[nH]2)cc1 :: 108

Reported residual activity for O=C1Nc2ccccc2/C1=C1/Nc2ccccc2/C1=N\OCCC(O)CO (stereo unspecified) was 4

Entry under test: c1ccc(-c2n[nH]cc2-c2ccnc3ccccc23)nc1 . Its residual activity was 88

Input Nc1nc(Nc2ccc(S(N)(=O)=O)cc2)nn1C(=S)Nc1c(F)cccc1F . Output residual activity: 0

residual activity recorded for this molecule, N#C/C(=C(\N)Sc1ccc(N)cc1)c1ccccc1C(F)(F)F , is 76

Entry Nc1n[nH]c2nnc(-c3c(-c4ccccc4)nn4ccccc34)cc12 , residual activity reported as 79

* * *

Reported residual activity values are given for each entry in this list.
system: Tyrosine-protein kinase SYK (Homo sapiens)
measurementSetup: at 1 µM
Respond numerically; units are % and should not be typed.

Solved cases below.
1) CC(=O)O/N=C1\C(=C2\C(=O)Nc3cc(Br)ccc32)Nc2ccccc21 :: 80
2) CO[C@H]1[C@@H](OC)C[C@H](C)[C@@H](OC)C2=CC(=O)C=C(NC(=O)/C(C)=C/C=C/[C@H](OC)[C@@H](OC(N)=O)/C(C)=C/[C@@H]1C)C2=O :: 110
3) N#Cc1cnc2cnc(NCc3cccnc3)cc2c1Nc1ccc(F)c(Cl)c1 :: 2
4) O=[N+]([O-])c1ccc(-c2nc(-c3ccc(F)cc3)c(-c3ccncc3)[nH]2)cc1 :: 118
5) COc1cccc(-c2cc(=O)c3ccccc3o2)c1N :: 104

// recorded residual activity for CC(C)n1cnc2c(NCc3ccccc3)nc(NCCCO)nc21 : 103

Data point: Nc1nc(Nc2ccc(S(N)(=O)=O)cc2)nn1C(=S)Nc1c(F)cccc1F ; residual activity = 16

* * *

Entries and their residual activity values follow.
system: Tyrosine-protein kinase Yes (Homo sapiens) (UniProt P07947)
Sequence (P07947 2-543 limits assumed): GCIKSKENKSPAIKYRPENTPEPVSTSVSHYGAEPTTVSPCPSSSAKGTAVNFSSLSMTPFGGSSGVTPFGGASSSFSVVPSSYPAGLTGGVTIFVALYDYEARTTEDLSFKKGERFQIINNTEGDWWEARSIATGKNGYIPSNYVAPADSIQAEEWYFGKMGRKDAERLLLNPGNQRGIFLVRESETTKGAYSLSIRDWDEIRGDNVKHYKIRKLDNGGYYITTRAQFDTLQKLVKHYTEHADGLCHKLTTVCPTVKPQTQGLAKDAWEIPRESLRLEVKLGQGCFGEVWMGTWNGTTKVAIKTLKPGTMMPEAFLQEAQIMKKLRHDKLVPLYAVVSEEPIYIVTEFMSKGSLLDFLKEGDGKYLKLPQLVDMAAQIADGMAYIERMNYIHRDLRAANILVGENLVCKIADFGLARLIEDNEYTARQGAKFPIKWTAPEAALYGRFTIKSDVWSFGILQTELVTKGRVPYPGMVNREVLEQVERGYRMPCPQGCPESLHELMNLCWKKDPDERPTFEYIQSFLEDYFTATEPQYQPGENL
measurementSetup: at 1 µM
Form entry: value (%) — number only.

1. Cc1cccc(-c2[nH]c(C(C)(C)C)nc2-c2ccc3c(c2)OCO3)n1 :: 103

Measured on Tyrosine-protein kinase Yes (Homo sapiens) (UniProt P07947), COc1ccc(C(=O)Nc2sc3c(c2C(N)=O)CCCC3)cc1OC has a documented residual activity of 106

Tyrosine-protein kinase Yes (Homo sapiens) (UniProt P07947) assay, compound O=Nc1c(-c2c(O)[nH]c3ccccc23)[nH]c2ccccc12 , recorded residual activity = 17

The compound CN(C)c1ccc(/C=C2\C(=O)Nc3ccccc32)cc1 , when measured on Tyrosine-protein kinase Yes (Homo sapiens) (UniProt P07947), yielded residual activity of 98

Tested system Tyrosine-protein kinase Yes (Homo sapiens) (UniProt P07947); residual activity recorded for COc1ccc(OC)c2c(=S)c3ccccc3[nH]c12 was 100

Item O=C1NC(=O)/C(=C\c2ccc3nccnc3c2)S1 was tested on Tyrosine-protein kinase Yes (Homo sapiens) (UniProt P07947); the reported residual activity is 119

Reading of residual activity for CO[C@@H]1[C@H](N(C)C(=O)c2ccccc2)C[C@H]2O[C@]1(C)n1c3ccccc3c3c4c(c5c6ccccc6n2c5c31)C(=O)NC4 with Tyrosine-protein kinase Yes (Homo sapiens) (UniProt P07947): 5

Entry Nc1nc(Nc2ccc(S(N)(=O)=O)cc2)nn1C(=S)Nc1c(F)cccc1F ; assay system Tyrosine-protein kinase Yes (Homo sapiens) (UniProt P07947); residual activity recorded at 3

Tested on Tyrosine-protein kinase Yes (Homo sapiens) (UniProt P07947), the item COc1cccc(-c2cc(=O)c3ccccc3o2)c1N showed residual activity equal to 123

Recorded residual activity for CCOc1cc2ncnc(Nc3cccc(Br)c3)c2cc1OCC on Tyrosine-protein kinase Yes (Homo sapiens) (UniProt P07947) was 17

* * *

Below, each of the compounds is paired with its reported residual activity value.
system: Mitogen-activated protein kinase kinase kinase 5 (Homo sapiens)
measurementSetup: at 1 µM
Give a bare numeral; the unit % is implied.

Below, 2 compounds whose answers are already recorded.
1. CC(C)n1cnc2/c(=N/c3cccc(Cl)c3)nc(NCCO)[nH]c21 :: 90
2. COc1cc2ncnc(Nc3ccc(NC(=O)c4ccccc4)cc3)c2cc1OC :: 103

residual activity reported for this compound CO[C@H]1C[C@@H]2CC[C@@H](C)[C@@](O)(O2)C(=O)C(=O)N2CCCC[C@H]2C(=O)O[C@H]([C@H](C)C[C@@H]2CC[C@@H](O)[C@H](OC)C2)CC(=O)[C@H](C)/C=C(\C)[C@@H](O)[C@@H](OC)C(=O)[C@H](C)C[C@H](C)/C=C/C=C/C=C/1C : 85

Data point: Cc1nc2cc3nc(-c4cccs4)cnc3cc2n1C ; residual activity = 109

Reported residual activity for c1ccc(-c2n[nH]c3c2oc2ccccc23)cc1 was 95

* * *

residual activity values by entry
system: Calcium/calmodulin-dependent protein kinase type II subunit beta (Homo sapiens)
measurementSetup: at 10 µM
Could you write the number and then its unit?

See these solved cases before continuing.
1) O=C1NC(=O)c2cc(Nc3ccc(F)cc3)c(Nc3ccc(F)cc3)cc21 :: 50%
2) COc1cc2ncnc(N3CCN(C(=O)Nc4ccc(Oc5ccccc5)cc4)CC3)c2cc1OC :: 89%
3) Cc1cccc(-c2[nH]c(C(C)(C)C)nc2-c2ccc3c(c2)OCO3)n1 :: 88%

# residual activity of Cc1nc(-c2ccccc2)c(-c2ccncc2)o1 = 86%

Recorded result, Cn1cc(/C=C2\C(=O)Nc3ccc(S(N)(=O)=O)cc32)c2ccccc21 , residual activity: 58%

Briefly, residual activity measured for Nc1nc(Nc2ccc(S(N)(=O)=O)cc2)nn1C(=S)Nc1c(F)cccc1F : -1%

* * *

system: Protein-tyrosine kinase 2-beta (Homo sapiens) (UniProt Q14289)
Sequence (Q14289 whole entry, looked up): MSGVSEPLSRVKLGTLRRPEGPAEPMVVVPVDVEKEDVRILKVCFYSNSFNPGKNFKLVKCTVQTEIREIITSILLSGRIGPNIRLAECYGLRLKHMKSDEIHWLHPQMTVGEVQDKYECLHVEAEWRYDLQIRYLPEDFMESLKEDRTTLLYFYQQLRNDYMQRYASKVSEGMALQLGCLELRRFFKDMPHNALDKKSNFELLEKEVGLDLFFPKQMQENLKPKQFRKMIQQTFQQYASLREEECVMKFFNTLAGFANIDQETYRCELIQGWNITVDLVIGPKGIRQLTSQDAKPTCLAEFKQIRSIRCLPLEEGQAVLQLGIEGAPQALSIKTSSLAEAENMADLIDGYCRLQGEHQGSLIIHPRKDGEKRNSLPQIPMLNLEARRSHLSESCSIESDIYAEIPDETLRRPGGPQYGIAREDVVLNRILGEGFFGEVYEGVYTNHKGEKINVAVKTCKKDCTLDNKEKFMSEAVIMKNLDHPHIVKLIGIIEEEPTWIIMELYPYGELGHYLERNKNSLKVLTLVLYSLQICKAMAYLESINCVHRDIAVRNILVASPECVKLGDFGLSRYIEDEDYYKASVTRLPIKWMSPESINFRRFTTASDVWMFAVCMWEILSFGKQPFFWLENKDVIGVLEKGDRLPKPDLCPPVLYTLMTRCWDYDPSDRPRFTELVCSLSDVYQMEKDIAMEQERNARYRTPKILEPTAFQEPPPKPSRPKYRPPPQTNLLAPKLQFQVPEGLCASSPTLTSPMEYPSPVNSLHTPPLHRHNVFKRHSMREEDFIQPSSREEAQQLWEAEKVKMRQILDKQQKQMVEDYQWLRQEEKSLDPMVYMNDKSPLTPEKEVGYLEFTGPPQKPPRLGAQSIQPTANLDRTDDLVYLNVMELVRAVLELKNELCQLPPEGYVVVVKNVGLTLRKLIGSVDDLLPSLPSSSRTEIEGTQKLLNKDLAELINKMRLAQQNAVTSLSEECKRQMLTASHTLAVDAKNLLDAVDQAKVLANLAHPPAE
measurementSetup: at 10 µM
Would you please tag the item true when its residual activity is 80% or above, and false when it is below?

Solved entries:
1) O=C(Nc1cccc(Nc2nccc(Nc3cccc(C(F)(F)F)c3)n2)c1)C1CC1 :: false
2) COc1cccc(-c2cc(=O)c3ccccc3o2)c1N :: true
3) CCN(CC)C(=O)c1ccc(Nc2nc(OCC3CCCCC3)c3nc[nH]c3n2)cc1 :: false
4) CC(=O)O/N=C1\C(=C2\C(=O)Nc3cc(Br)ccc32)Nc2ccccc21 :: false
5) Cc1cc(Nc2nc(-c3ccccc3)nc3ccccc23)n[nH]1 :: false
6) CC(=O)c1ccc(N2CCOCC2)cc1O :: true
7) O=C1Nc2cc(Br)ccc2/C1=C1/Nc2ccccc2/C1=N\O :: false
8) CO[C@H]1[C@@H](OC)C[C@H](C)[C@@H](OC)C2=CC(=O)C=C(NC(=O)/C(C)=C/C=C/[C@H](OC)[C@@H](OC(N)=O)/C(C)=C/[C@@H]1C)C2=O :: true
9) COc1ccc(S(=O)(=O)N(CCO)c2ccccc2CN(C)C/C=C/c2ccc(Cl)cc2)cc1 :: true
10) O=C1NC(=O)/C(=C\c2ccc3nccnc3c2)S1 :: true

Could you please find out whether O=c1c2ccccc2[nH]c(=S)n1CCN1CCC(=C(c2ccc(F)cc2)c2ccc(F)cc2)CC1 has residual activity that meets 80% or exceeds it?
true

Hi team, for O=C(O)c1ccc2c3c1cccc3c(=O)n1c3ccccc3nc21 , is the recorded residual activity at or above 80%?
false

Is the recorded value of residual activity equal to or greater than 80% for this compound? Nc1nc(Nc2ccc(S(N)(=O)=O)cc2)nn1C(=S)Nc1c(F)cccc1F
false

Record CCOc1cc2ncnc(Nc3cccc(Br)c3)c2cc1OCC ; criterion: residual activity no lower than 80%. Met?
false

Reported residual activity at or above 80%? Oc1ccc(Nc2nc(-c3ccc(Cl)cc3)cs2)cc1
true

* * *

system: Homeodomain-interacting protein kinase 2 (Homo sapiens) (UniProt Q9H2X6)
Sequence (Q9H2X6 whole entry, looked up): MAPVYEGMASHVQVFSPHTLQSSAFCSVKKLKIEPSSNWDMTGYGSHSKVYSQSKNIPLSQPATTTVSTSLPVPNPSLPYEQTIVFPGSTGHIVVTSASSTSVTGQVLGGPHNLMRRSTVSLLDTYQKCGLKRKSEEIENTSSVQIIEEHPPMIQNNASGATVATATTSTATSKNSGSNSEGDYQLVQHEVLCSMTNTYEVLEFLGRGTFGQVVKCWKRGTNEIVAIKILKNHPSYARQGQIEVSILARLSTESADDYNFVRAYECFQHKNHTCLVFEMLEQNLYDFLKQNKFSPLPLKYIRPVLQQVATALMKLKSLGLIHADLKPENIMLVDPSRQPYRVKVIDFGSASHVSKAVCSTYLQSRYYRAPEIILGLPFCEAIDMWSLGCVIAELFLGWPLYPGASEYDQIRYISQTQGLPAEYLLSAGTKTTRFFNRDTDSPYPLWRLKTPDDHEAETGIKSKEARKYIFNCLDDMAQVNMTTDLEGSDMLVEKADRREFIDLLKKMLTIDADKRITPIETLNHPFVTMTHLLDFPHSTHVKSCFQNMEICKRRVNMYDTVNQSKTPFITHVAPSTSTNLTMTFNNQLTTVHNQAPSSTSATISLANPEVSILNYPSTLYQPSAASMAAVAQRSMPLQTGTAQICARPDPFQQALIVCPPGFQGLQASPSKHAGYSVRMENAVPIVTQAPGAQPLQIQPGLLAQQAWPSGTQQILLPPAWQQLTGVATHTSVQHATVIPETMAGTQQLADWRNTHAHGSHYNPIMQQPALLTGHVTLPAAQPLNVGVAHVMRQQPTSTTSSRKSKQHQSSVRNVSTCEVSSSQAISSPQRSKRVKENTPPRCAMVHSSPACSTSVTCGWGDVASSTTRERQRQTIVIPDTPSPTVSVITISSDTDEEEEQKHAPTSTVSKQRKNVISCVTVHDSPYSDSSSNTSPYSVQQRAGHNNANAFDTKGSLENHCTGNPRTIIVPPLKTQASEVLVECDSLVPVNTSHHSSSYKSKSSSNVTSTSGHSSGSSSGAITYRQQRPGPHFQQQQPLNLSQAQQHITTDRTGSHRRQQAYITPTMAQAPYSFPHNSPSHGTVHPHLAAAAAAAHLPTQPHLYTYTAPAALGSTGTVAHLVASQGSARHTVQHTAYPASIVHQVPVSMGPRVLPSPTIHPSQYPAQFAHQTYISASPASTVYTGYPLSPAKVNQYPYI
measurementSetup: at 1 µM
measurementLabel: residual activity

1. CC(C)n1cnc2c(NCc3ccccc3)nc(NCCCO)nc21 :: 100%
2. COc1ccc(S(=O)(=O)N(CCO)c2ccccc2CN(C)C/C=C/c2ccc(Cl)cc2)cc1 :: 103%

Record Cc1cc2ncc(-c3ccccc3)nc2cc1C , field residual activity: 102%

* * *

Measured residual activity, listed per entry.
system: LIM domain kinase 1 (Homo sapiens)
measurementSetup: at 1 µM
Only the number, expressed in %, is required.

1. c1ccc2c(-c3ccncc3)c[nH]c2c1 :: 98
2. CC(C)n1cnc2/c(=N/c3cccc(Cl)c3)nc(NCCO)[nH]c21 :: 96
3. N#C/C(=C(\N)Sc1ccc(N)cc1)c1ccccc1C(F)(F)F :: 91
4. O=C(O)c1ccc2c3c1cccc3c(=O)n1c3ccccc3nc21 :: 101
5. CCN(CC)C(=O)c1ccc(Nc2nc(OCC3CCCCC3)c3nc[nH]c3n2)cc1 :: 39

In plain terms, Cc1nc2cc3nc(-c4cccs4)cnc3cc2n1C has a documented residual activity of 116

Record CC(=O)c1ccc(N2CCOCC2)cc1O , field residual activity: 104

The compound identified as CC(=O)O/N=C1\C(=C2\C(=O)Nc3cc(Br)ccc32)Nc2ccccc21 registered its residual activity at 83

residual activity for Cc1nc(-c2ccccc2)c(-c2ccncc2)o1 is 106

Looking up Nc1n[nH]c2nnc(-c3c(-c4ccccc4)nn4ccccc34)cc12 , I found its residual activity recorded as 82

Measured residual activity, CCC(=O)Nc1ccc2ncnc(Nc3cccc(Br)c3)c2c1 : 97

Entry O=c1cc(-c2cccc3c2Sc2ccccc2S3)oc(N2CCOCC2)c1 ; residual activity = 98
